Assay: viability of HMEC-1 cells, XTT and Hoechst 33342 assays
Format: cell-based, human
Settings: human, HMEC-1 cells, HMEC-1, 100 µM, % of control, read-out: cell viability (XTT and Hoechst assay)
property: viability at 48 h, 100 µM

# compound, viability at 48 h, 100 µM
records = [
    ("Oc1cc(O)c2cc(O)c(-c3ccc(O)c(O)c3)[o+]c2c1", "65 to 80%"),
]

Asked: I am curious: what viability at 48 h, 100 µM value has been reported for Oc1cc(O)c2cc(OC3OCC(O)C(O)C3O)c(-c3ccc(O)c(O)c3)[o+]c2c1 (centres unmarked) [CA, cyanidin-3-O-arabinoside] ?
Given back: 60 to 85%
